Please provide measured Kd for the entries that follow.
Target: T1, LATS2 (Homo sapiens)
T1 chain: RRCPPPPYPKHL
Protocol Notes: ITC
Enter your answer as a number in µM; do not include the unit.

Recorded Kd (binder FEIPDDVPLPAGWEMAKTSSGQRYFLNHIDQTTTWQDPRKAMLSQ [YAP-WW1 165-209] ): 7.1

Recorded Kd (binder YAP-WW1-WW2 165-271 (protein) FEIPDDVPLPAGWEMAKTSSGQRYFLNHIDQTTTWQDPRKAMLSQMNVTAPTSPPVQQNMMNSASGPLPDGWEQAMTQDGEIYYINHKNKTTSWLDPRLDPRFAMNQ ): 9.2

Recorded Kd (binder ASGPLPDGWEQAMTQDGEIYYINHKNKTTSWLDPRLDPRFAMNQ [YAP-WW2 228-271] ): 8.2
